Value source: patent US10562878B2

- assay-target: DA Transporter (DAT) sites in mouse brain (Mus musculus (Mouse), UniProt Q61327)
- assay-details: Ex vivo [3H] WIN 35428 binding to DAT sites in mouse brain after oral dosing
- assay-context: mice, 1 mg/kg PO, 60 min after treatment
Counter-ions that a name gives are not always drawn.
Returns: string. Value is yes if measured DAT Mean Specific Binding ± S.E.M. is below 20000 dpm, and no if it is greater than or equal to it.

>>> label_value("CNC(C)C1(c2ccc3ccccc3c2)CCCCC1 (single isomer, unassigned) [58 E1]")
"yes"
>>> label_value("CN(C)C[C@]1(c2ccc3ccccc3c2)CCCC[C@H]1O (relative stereo) [164 E1]")
"no"
>>> label_value("CN(C)CC1(c2ccc(Cl)c(Cl)c2)CCC(C)(O)CC1 (stereo not shown) [Compound 277]")
"no"
>>> label_value("CN[C@H](C)C1(c2ccc(Cl)c(Cl)c2)CCCCC1 (stereo in doubt) [48 E1, hydrochloride]")
"no"

// query Lab note: DAT Mean Specific Binding ± S.E.M. threshold 20000 dpm. Does this molecule come in strictly under it? CN(C)C[C@]1(c2ccc(Cl)c(Cl)c2)CCCC[C@H]1O (relative stereo) [153 E2]
// result no

// query Lab note: DAT Mean Specific Binding ± S.E.M. threshold 20000 dpm. Does this molecule come in strictly under it? CC(N(C)C)C1(c2ccc3ccccc3c2)CCCCC1 (single isomer, unassigned) [56 E1]
// result no
